Source of measurements: ChEMBL document CHEMBL3091347

PROCEDURE_TEXT: Lipophilicity, log P of the compound
TEST_CONDITIONS: octanol/water
Short version: logP at least -3 is Fulfilled, less is Not fulfilled.

> print(dat)
                                   molecule    label.class
1  N/N=C/C(O)C(O)C(O)C(CC(=O)c1ccncc1)C(=O)c1ccncc1 (stereo not given)  Not fulfilled
2               Cc1c(C(=O)NN)sc(C(=O)NN)c1C      Fulfilled
3  O=C(N/N=C/C(O)C(O)C(O)C(O)CO)c1cccs1 (stereo not given)  Not fulfilled
4                       NNC(=O)c1ccc(Cl)cc1      Fulfilled
5  O=C(N/N=C/C(O)C(O)C(O)CO)c1ccncc1 (stereo not given)  Not fulfilled
6  NNC(=O)C1CCC(C(=O)NN)CC1 (stereo not given)  Not fulfilled
7  NNC(=O)c1ccccc1 [BENZOIC ACID HYDRAZIDE]      Fulfilled
8  NNC(=O)c1cccnc1 [NICOTINIC ACID HYDRAZIDE]      Fulfilled
9         CC(C)NNC(=O)c1ccncc1 [IPRONIAZID]      Fulfilled

###

Tested on: Mycobacterium tuberculosis
PROCEDURE_TEXT: Antitubercular activity against Mycobacterium tuberculosis
Type: functional
Short version: log(1/MIC) at least 0.3 is yes (1), less is no (0).

> print(dat)
                                    compound  label.class
 1                        CN1CCC(C(=O)NN)CC1       no (0)
 2                            NNC(=O)c1ccco1      yes (1)
 3                       NNC(=O)CN1CSC(N)=N1       no (0)
 4                          Cc1cnccc1C(=O)NN       no (0)
 5                       NNC(=O)/C=C/C(=O)NN       no (0)
 6                           NNC(=O)c1ccccn1      yes (1)
 7       Nc1ccc(S(=O)(=O)NNC(=O)c2ccncc2)cc1       no (0)
 8  NNC(=O)c1ccccc1 [BENZOIC ACID HYDRAZIDE]       no (0)
 9                  CCN(CC)c1cc(C(=O)NN)ccn1       no (0)
10                       Cc1ncnc(O)c1C(=O)NN       no (0)
11                  CC(C)/C=N\NC(=O)c1ccncc1      yes (1)
12              NNC(=O)c1ccc([N+](=O)[O-])o1       no (0)
13                           O=C(NO)c1ccncc1       no (0)
14                            NNC(=O)c1cccs1       no (0)
15  N/N=C/C(O)C(O)C(O)C(CC(=O)c1ccncc1)C(=O)c1ccncc1 (stereo unspecified)      yes (1)
16                     CC(C)=NNC(=O)c1ccncc1      yes (1)
17                   CC(C)/C=N\NC(=O)c1ccco1      yes (1)
18             NNC(=O)c1cccc([N+](=O)[O-])c1       no (0)
19       NNC(=O)C1CCCO1 (stereo unspecified)      yes (1)
20                          NNC(=O)Cc1ccccc1       no (0)
21                       NNC(=O)c1ccnc(Br)c1       no (0)
22                    NNS(=O)(=O)c1ccc(N)cc1       no (0)
23                 CC(C)(C#N)NNC(=O)c1ccncc1      yes (1)
24                   CCC(CC)=NNC(=O)c1ccncc1      yes (1)
25                      CC(C)=NNC(=O)c1cccs1      yes (1)
26      CCN(CC)c1ccc(/C=N/NC(=O)c2ccncc2)cc1       no (0)

###

Test system: Mycobacterium tuberculosis
PROCEDURE_TEXT: Antitubercular activity against Mycobacterium tuberculosis BCG
Format: functional
Measured MIC, listed per entry for reference.
ATTRIBUTE_MEASURED: MIC

> print(dat)
                                    compound  endpoint.result
 1                  CC(C)(C#N)NNC(=O)c1cccs1          3 µg/mL
 2  NNC(=O)c1cccnc1 [NICOTINIC ACID HYDRAZIDE]          2 µg/mL
 3  O=C(NNS(=O)(=O)c1ccc([N+](=O)[O-])cc1)c1ccncc1         60 µg/mL
 4                   O=C(NNCc1ccco1)c1ccncc1         15 µg/mL
 5                        NNC(=O)c1cccc(N)c1          3 µg/mL
 6                      NNC(=O)c1nc2ccccc2s1          8 µg/mL
 7                            NNC(=O)c1cscn1         15 µg/mL
 8                         NNC(=O)c1cnc(N)s1          6 µg/mL
 9                       NNC(=O)/C=C/c1ccco1          3 µg/mL
10                         NNC(=O)c1ccc[nH]1         60 µg/mL

###

Tested on: Mycobacterium tuberculosis
PROCEDURE_TEXT: Antitubercular activity against Mycobacterium tuberculosis BCG
Assay type: functional
Could you please mark label 1 for values of MIC below 20 µg/mL and label 0 for values at or above it?

> print(dat)
                                  compound  label.class
1                 Cc1ccc(C)n1NC(=O)c1cccs1      label 0
2                  NNC(=O)c1nc2ccccc2[nH]1      label 1
3  NNC(=O)C1Cc2ccccc2O1 (stereo not given)      label 0
4                      NNC(=O)c1ccc(Br)cc1      label 1
5                Cc1ccc(C)n1NC(=O)c1ccncc1      label 1

###

System: Mycobacterium tuberculosis
PROCEDURE_TEXT: Antitubercular activity against Mycobacterium tuberculosis BCG
Assay type: functional
Measured log(1/MIC), listed per entry for reference.
ATTRIBUTE_MEASURED: log(1/MIC)

> print(dat)
                                    compound  attribute.measured  endpoint.result
 1                       NNC(=O)/C=C/c1ccco1          log(1/MIC)          -0.4771
 2                    CN(C)c1ccc(C(=O)NN)cc1          log(1/MIC)          -0.7782
 3               CCCCCCCCCCCCNNC(=O)c1ccncc1          log(1/MIC)            1.301
 4                           NNC(=O)C1CCNCC1          log(1/MIC)           -2.778
 5                           NNC(=O)c1ccncn1          log(1/MIC)           -1.301
 6  NNC(=O)C(O)c1ccccc1 (configuration not stated)          log(1/MIC)           -1.602
 7                       COc1ccc(C(=O)NN)cc1          log(1/MIC)          -0.9031
 8                         NNC(=O)c1csc(N)n1          log(1/MIC)          -0.4771
 9                      NNC(=O)c1nc2ccccc2s1          log(1/MIC)          -0.9031
10  O=C(N/N=C/C(O)C(O)C(O)C(O)CO)c1cccs1 (configuration not stated)          log(1/MIC)           0.2218
11  CC1CCC(NNC(=O)c2ccncc2)CC1 (configuration not stated)          log(1/MIC)           -0.699
12                   CC(C)/C=N/NC(=O)c1cccs1          log(1/MIC)         -0.07918
13             CC(=O)C/C(C)=N/NC(=O)c1ccncc1          log(1/MIC)          0.09691
14                        NNC(=O)c1ccc(N)cc1          log(1/MIC)          -0.7782
15                  Cc1ccc(C)n1NC(=O)c1ccco1          log(1/MIC)           -1.176
16                   O=C(NNC1CCCCC1)c1ccncc1          log(1/MIC)           -0.699
17                      NNC(=O)Cc1ccc(Cl)cc1          log(1/MIC)               -1
18                  CC(C)(C#N)NNC(=O)c1cccs1          log(1/MIC)          -0.4771
19                  NNC(=O)c1ccc(C(=O)NN)cc1          log(1/MIC)          -0.4771
20                 Cc1ccc(C)n1NC(=O)c1ccncc1          log(1/MIC)               -1
21                         NNC(=O)c1ccc[nH]1          log(1/MIC)           -1.778
22                       NNC(=O)c1ccc(Br)cc1          log(1/MIC)           -1.079
23                                  CC(=O)NN          log(1/MIC)           -2.176
24                            NNC(=O)c1ccsc1          log(1/MIC)          -0.9031
25             CCCCCCCCCC/C=N/NC(=O)c1ccncc1          log(1/MIC)           0.5229
26                   NNC(=O)c1ccc(C(=O)NN)o1          log(1/MIC)          -0.7782
27                       NNC(=O)c1ccc(Cl)cc1          log(1/MIC)          -0.4771
28                      NNC(=O)/C=C/c1ccccc1          log(1/MIC)           0.3979
29                        O=CNNC(=O)c1ccncc1          log(1/MIC)          -0.4771
30  O=C(N/N=C/C(O)C(O)C(OC1OC(CO)C(O)C(O)C1O)C(O)CO)c1ccncc1 (configuration not stated)          log(1/MIC)           0.8239
31  O=C(N/N=C/C(O)C(O)C(O)CO)c1ccncc1 (configuration not stated)          log(1/MIC)            1.301
32                        NNC(=O)c1ccc(I)cc1          log(1/MIC)          -0.7782
33             NNC(=O)c1ccc([N+](=O)[O-])cc1          log(1/MIC)           -1.079
34  NNC(=O)c1cnccn1 [PYRAZINE CARBOXYLIC ACID HYDRAZIDE]          log(1/MIC)          -0.1761
35  NNC(=O)c1cccnc1 [NICOTINIC ACID HYDRAZIDE]          log(1/MIC)           -0.301
36             NNC(=O)C(O)(c1ccccc1)c1ccccc1          log(1/MIC)               -2
37  O=C(NNS(=O)(=O)c1ccc([N+](=O)[O-])cc1)c1ccncc1          log(1/MIC)           -1.778
38                CCCCC/C(C)=N\NC(=O)c1cccs1          log(1/MIC)          -0.4771
39  O=C(N/N=C\C(O)C(O)C(O)C(O)CO)c1ccncc1 (configuration not stated)          log(1/MIC)           0.8239
40                   O=C(NNCc1ccco1)c1ccncc1          log(1/MIC)           -1.176
41                            NNC(=O)c1cncs1          log(1/MIC)               -1
42  CC1CCC(=NNC(=O)c2ccncc2)CC1 (configuration not stated)          log(1/MIC)           1.1549
